Target: Tubulin (Bos taurus) (UniProt Q6B856+Q862F3)
Assay: Inhibition of bovine brain tubulin polymerization assessed as increase in fluorescence intensity at 5 uM relative to control
metric-name: inhibition (%)

mol: COC(=O)c1nnnn1[C@@H]1c2cc3c(cc2[C@@H](c2cc(OC)c(OC)c(OC)c2)[C@H]2C(=O)OC[C@@H]21)OCO3
metric-name: inhibition
reported-measurement: 12.4

mol: COC(=O)Nc1nc2ccc(C(=O)c3cccs3)cc2n1C
metric-name: inhibition
reported-measurement: 65.3

mol: CCOC(=O)c1nnnn1[C@@H]1c2cc3c(cc2[C@@H](c2cc(OC)c(OC)c(OC)c2)[C@H]2C(=O)OC[C@@H]21)OCO3
metric-name: inhibition
reported-measurement: 99.2

mol: COc1cc([C@@H]2c3cc4c(cc3[C@@H](n3nnnc3C(=O)OCc3ccccc3)[C@H]3COC(=O)[C@H]23)OCO4)cc(OC)c1OC
metric-name: inhibition
reported-measurement: 57.5

mol: COc1cc([C@@H]2c3cc4c(cc3[C@@H](n3nnnc3S(=O)(=O)c3ccc(C)cc3)[C@H]3COC(=O)[C@H]23)OCO4)cc(OC)c1O
metric-name: inhibition
reported-measurement: 22.5

mol: COc1cc([C@@H]2c3cc4c(cc3[C@@H](n3nnnc3C(=O)c3ccccc3)[C@H]3COC(=O)[C@H]23)OCO4)cc(OC)c1O
metric-name: inhibition
reported-measurement: 11.5

mol: COc1cc([C@@H]2c3cc4c(cc3[C@@H](n3nnnc3S(=O)(=O)c3ccc(C)cc3)[C@H]3COC(=O)[C@H]23)OCO4)cc(OC)c1OC
metric-name: inhibition
reported-measurement: 0.73

---

Tested on: MCF7
Assay: Cytotoxicity against human MCF7 cells assessed as cell viability by SRB assay
Format: functional, cell-based
// returns NO unless IC50 is strictly below 7 µM, in which case YES

mol: COc1cccc2c1C(=O)c1c(O)c3c(c(O)c1C2=O)C[C@@](O)(C(=O)CO)C[C@@H]3O[C@H]1C[C@H](N)[C@H](O)[C@H](C)O1
class-label: NO

mol: COc1cc([C@@H]2c3cc4c(cc3[C@@H](n3nnnc3C(=O)OCc3ccccc3)[C@H]3COC(=O)[C@H]23)OCO4)cc(OC)c1OC
class-label: YES

mol: COC(=O)c1nnnn1[C@@H]1c2cc3c(cc2[C@@H](c2cc(OC)c(O)c(OC)c2)[C@H]2C(=O)OC[C@@H]21)OCO3
class-label: YES

mol: CCOC(=O)c1nnnn1[C@@H]1c2cc3c(cc2[C@@H](c2cc(OC)c(O)c(OC)c2)[C@H]2C(=O)OC[C@@H]21)OCO3
class-label: NO

mol: CCOC(=O)c1nnnn1[C@@H]1c2cc3c(cc2[C@@H](c2cc(OC)c(OC)c(OC)c2)[C@H]2C(=O)OC[C@@H]21)OCO3
class-label: NO

---

Tested on: A549
Assay: Induction of cell cycle arrest in human A549 cells assessed as accumulation at G0 phase at 5 uM after 24 hrs by flow cytometry
Assay type: functional
Returns Fulfilled if the recorded Activity is greater than or equal to 10%, and Not fulfilled otherwise.

molecule: COc1cc([C@@H]2c3cc4c(cc3[C@@H](n3nnnc3C(=O)c3ccccc3)[C@H]3COC(=O)[C@H]23)OCO4)cc(OC)c1OC
class-label: Fulfilled
--
molecule: COc1cc([C@@H]2c3cc4c(cc3[C@@H](n3nnnc3S(=O)(=O)c3ccc(C)cc3)[C@H]3COC(=O)[C@H]23)OCO4)cc(OC)c1OC
class-label: Fulfilled
--
molecule: COc1cc([C@@H]2c3cc4c(cc3[C@@H](n3nnnc3C(=O)OCc3ccccc3)[C@H]3COC(=O)[C@H]23)OCO4)cc(OC)c1O
class-label: Not fulfilled
--
molecule: COc1cc([C@@H]2c3cc4c(cc3[C@@H](n3nnnc3S(=O)(=O)c3ccc(C)cc3)[C@H]3COC(=O)[C@H]23)OCO4)cc(OC)c1O
class-label: Fulfilled
--
molecule: COc1cc([C@@H]2c3cc4c(cc3[C@H](O)[C@H]3COC(=O)[C@H]23)OCO4)cc(OC)c1OC [PODOFILOX]
class-label: Not fulfilled
--
molecule: COC(=O)c1nnnn1[C@@H]1c2cc3c(cc2[C@@H](c2cc(OC)c(OC)c(OC)c2)[C@H]2C(=O)OC[C@@H]21)OCO3
class-label: Fulfilled
--
molecule: CCOC(=O)c1nnnn1[C@@H]1c2cc3c(cc2[C@@H](c2cc(OC)c(O)c(OC)c2)[C@H]2C(=O)OC[C@@H]21)OCO3
class-label: Not fulfilled
--
molecule: CCOC(=O)c1nnnn1[C@@H]1c2cc3c(cc2[C@@H](c2cc(OC)c(OC)c(OC)c2)[C@H]2C(=O)OC[C@@H]21)OCO3
class-label: Fulfilled
--
molecule: COc1cc([C@@H]2c3cc4c(cc3[C@@H](n3nnnc3C(=O)c3ccccc3)[C@H]3COC(=O)[C@H]23)OCO4)cc(OC)c1O
class-label: Not fulfilled
